# Tested on: HT29 colon
# assay_name: NCI-60 one-dose screen, 48 h
# condition_context: 10 µM unless noted
The panel holds about 83,000 compounds, 20% with a hit somewhere; the sample as a whole holds those more often. Activity calls are given as the source filed them. Rule for the calls: active = growth percent below 10; inactive = the rest.
API: response.call in y = active, n = inactive

Lookup: Entry `COC(=O)[C@]1(C)CCC[C@]2(C)[C@H]3C[C@H]4C(C(C)C)=C[C@]3(CC[C@H]21)[C@@H]1C(=O)N(CCC#N)C(=O)[C@@H]14` : call = ?
Found: n

Lookup: Assay result, entry `O=c1[nH]nc(-c2ccccc2)c2sc(NC(=S)Nc3ccc(Cl)cc3)nc12` — outcome?
Found: n

Lookup: # fetch the recorded call for `C=C1C(=O)O[C@H]2[C@H]1CC/C(COC(=O)Nc1nc3ccccc3[nH]1)=C\CC[C@@]1(C)O[C@@H]21` here
Found: n

Lookup: # lookup: test call for `C=C(C)[C@@H]1CC[C@]2(C(=O)NCCCO)CC[C@]3(C)[C@H](CC[C@@H]4[C@@]5(C)CCCNC(C)(C)[C@@H]5CC[C@]43C)[C@@H]12`
Found: y

Lookup: For `C=C(C)[C@@H]1CC[C@]2(C(=O)O)CC[C@]3(C)[C@H](CC[C@@H]4[C@@]5(C)C[C@@H](CC#Cc6ccc(Cl)cc6)C(=O)C(C)(C)[C@@H]5CC[C@]43C)[C@@H]12` , which call appears in the assay record?
Found: n

Lookup: Test call for this molecule, please: `COc1cc(NC(=O)COc2cc(C)nc3ccc(OC)cc23)cc(OC)c1`
Found: n

Lookup: GET /call?item= CC(=O)Nc1nc2c(c(N)c1C#N)C(c1cccc(Cl)c1)C1=C(CCCC1=O)N2c1sc2c(c1C#N)CCCC2 (stereo not drawn) returns the recorded outcome of this test.
Found: n

Lookup: Please indicate how the test categorized FC(F)(F)c1ccc2c(Nc3cccc(C4CC(c5ccccc5)=NN4c4ccc(Cl)cc4)c3)ccnc2c1 (stereo not drawn) .
Found: n

Lookup: Tell me the recorded outcome of this test for `CCCCn1c2cc(OCc3cn(-c4ccc(Cl)cc4)nn3)ccc2c2ccnc(C)c21` .
Found: y

Lookup: What did the test return for `O=C1CCc2ccccc2N1` ?
Found: n

Lookup: // outcome(item) with item = `COc1ccc(Sc2[nH]c(C(C)=O)c3ccccc23)cc1`
Found: n

Lookup: Give the logged outcome of this assay for the following molecule: `Nc1c(C(=O)Nc2ccccn2)sc2nc3c(cc12)CCCCCC3`
Found: y

Lookup: For `COc1ccc2c(c1)OC13Oc4cc(OC)ccc4C=C1CCCCC3=C2` , which call appears in the assay record?
Found: n

Lookup: Any idea what this test logged for COc1ccc(C2N(c3cc(OC)c(OC)c(OC)c3)C(=O)C2(F)F)cc1F (stereo not drawn) ?
Found: n

Lookup: How did this test come out for OCCNc1nc(NCCO)nc(Nc2ccc(C3=NN(c4cc(Cl)cc(Cl)c4)C(c4ccc(Cl)cc4)C3)cc2)n1 (stereo not drawn) ?
Found: y

Lookup: Query: recorded result category for `O=C(Nc1ccccc1)NS(=O)(=O)c1c[nH]c(=S)[nH]c1=O` in this test
Found: n

Lookup: Call for entry `COCCc1n(Cc2ccc3ccccc3c2)c2ccccc2[n+]1Cc1ccc2ccccc2c1` :
Found: y

Lookup: For `Cc1nccc2c3ccc(OCc4cn(-c5ccc(Cl)cc5)nn4)cc3n(CC(C)C)c12` , what call appears in the results of this test?
Found: y

Lookup: Could you check what this test reported for `Nc1c(C(=O)Nc2ccccn2)sc2nc3c(cc12)C(=O)CCC3` ?
Found: n

Lookup: So what was the verdict on `Cc1cc(Nc2nc(SCc3ccc(C(=O)Nc4ccc(F)cc4N)cc3)nn3cccc23)n[nH]1` in this test?
Found: y

Lookup: State the result this test recorded for `Cn1c2c(c3ccc(-c4ccn[nH]4)cc3c1=O)C(=O)c1ccccc1-2` .
Found: n

Lookup: Short answer needed: outcome of this test for `COc1ccc2nc(-c3ccc(Cl)cc3)cc(-c3nnc(SC/C(=N/O)c4ccccc4)o3)c2c1` ?
Found: n

Lookup: # fetch the recorded call for `COc1ccc(-c2cn(-c3ccc(Cl)cc3)c(=S)[nH]2)cc1OC` here
Found: n

Lookup: Which outcome was assigned to `COc1ccc(-n2nc(C(=O)NCC(=O)O)nc2-c2ccccc2)cc1` in this test?
Found: n

Lookup: Would you mind telling me which call this test gave `CN(C)CCCn1c2c(c3cc(-c4cccc(S(N)(=O)=O)c4)ccc3c1=O)C(=O)c1ccccc1-2` ?
Found: y

Lookup: Look up the recorded call for `COc1ccc(C(=O)c2cc(OC)c(C)c(OC)c2)cc1OC(=O)CCl` in this test.
Found: n

Lookup: Entry `COc1cc(-c2nn(-c3ccc(Br)cc3)cc2CO)ccc1O` : call = ?
Found: n

Lookup: // return assay outcome for `CCCn1c2cc(OCc3cn(-c4ccc(Br)cc4)nn3)ccc2c2ccnc(C)c21`
Found: n

Lookup: For `O=C(CN1N=C(c2ccc(F)cc2)CCC1=O)Nc1nccs1` , what call appears in the results of this test?
Found: n

Lookup: // return assay outcome for N#CC1(C#N)C2=C(CCCC2)NC(c2c(F)cccc2Cl)C1(C#N)C#N (stereo not drawn)
Found: n

Lookup: Write down the call the test reported for this molecule. Item: CC(=O)ON1CCCC(P(=O)(OCOC(=O)C(C)(C)C)OCOC(=O)C(C)(C)C)C1=O (stereo not drawn)
Found: y

Lookup: Could you please tell me the result logged for `O=C(Nc1cc(=O)[nH]c(=O)[nH]1)C(Cl)Cl` in this assay?
Found: n

Lookup: How did this test come out for `O=C1Nc2ccc(Cl)cc2/C1=N/c1nc(-c2ccc(F)cc2)cs1` ?
Found: n

Cited source: PubChem BioAssay (NCI)
